Origin of measurements: the supplement of paper PMC6470124

test-description: LC retention time (Atlantis T3, 5-95% MeOH gradient, 0.1% formic acid); higher = more retained / less polar

compound	LC retention time
COCC(=O)Nc1c(I)c(C(=O)NCC(O)CO)c(I)c(C(=O)N(C)CC(O)CO)c1I (stereo unspecified)	10.1 min
Nc1ccc(S(=O)(=O)[N-]c2ccccn2)cc1	10.7 min
CCNc1nc(Cl)nc(NCC)n1	17.2 min
Nc1ccn(C2OC(CO)C(O)C2(F)F)c(=O)n1 (stereo unspecified)	6.58 min
CN1CC[NH+]=C(c2ccccc2)c2cc(Cl)ccc21	14.5 min
CCOC(=O)C1(c2ccccc2)CCC=CC1[NH+](C)C (stereo unspecified)	12.6 min

* * *

test-description: absolute recovery over vacuum-assisted evaporative concentration; higher = better recovery
experimental-conditions: wastewater effluent; enrichment method: VEC
# absolute recovery listing for each entry below
endpoint: absolute recovery (%)

molecule	endpoint	endpoint-unit	value-observed
CC(Cc1ccc(C(C)(C)C)cc1)C[NH+]1CCCCC1 (configuration not stated)	absolute recovery	%	146
CC(C)c1nc(N(C)S(C)(=O)=O)nc(-c2ccc(F)cc2)c1C=CC(O)CC(O)CC(=O)[O-] (configuration not stated)	absolute recovery	%	108
CC(CN1c2ccccc2CCc2ccccc21)C[NH+](C)C (configuration not stated)	absolute recovery	%	101
CC1(C)CC(O)CC(C)(C)[NH+]1CCO [4-Hydroxy-1-(2-hydroxyethyl)-2-2-6-6-tetramethylpiperidine]	absolute recovery	%	92.4
CSc1nnc(C(C)(C)C)c(=O)n1N	absolute recovery	%	101
CNC(=C[N+](=O)[O-])NCCSCc1ccc(C[NH+](C)C)o1	absolute recovery	%	102
CCN(CC)C(=O)Nc1ccc(OCC(O)C[NH2+]C(C)(C)C)c(C(C)=O)c1 (configuration not stated)	absolute recovery	%	103
COCC(C)N(C(=O)CCl)c1c(C)csc1C (configuration not stated)	absolute recovery	%	96
Cc1ccc(NC=O)c(C)c1	absolute recovery	%	108
CC(O)C(=O)Nc1c(I)c(C(=O)NC(CO)CO)c(I)c(C(=O)NC(CO)CO)c1I (configuration not stated)	absolute recovery	%	107
CC[NH+]1CCCC1CNC(=O)c1cc(S(N)(=O)=O)ccc1OC (configuration not stated)	absolute recovery	%	101
COc1cccc(C2(O)CCCCC2C[N+](C)(C)[O-])c1 (configuration not stated) [Tramadol-N-oxide]	absolute recovery	%	104
CCCCCCCCn1sccc1=O	absolute recovery	%	97.9
CCCCCOC(=O)[N-]c1nc(=O)n(C2OC(C)C(O)C2O)cc1F (configuration not stated)	absolute recovery	%	108
OC(Cn1cncn1)(Cn1cncn1)c1ccc(F)cc1F	absolute recovery	%	105
COC(=O)C1C(OC(=O)c2ccccc2)CC2CCC1[NH+]2C (configuration not stated)	absolute recovery	%	71.1
Nc1cn[nH+]c([O-])c1Cl	absolute recovery	%	102
CCC(CC)OC1C=C(C(=O)[O-])CC([NH3+])C1NC(C)=O (configuration not stated)	absolute recovery	%	105
CN1COCN(Cc2cnc(Cl)s2)C1=N[N+](=O)[O-]	absolute recovery	%	100
O=C([O-])c1cc(Oc2ccc(Cl)cc2Cl)ccc1[N+](=O)[O-]	absolute recovery	%	104
CNC(=O)CSP(=S)(OC)OC	absolute recovery	%	102
CCNc1nc(Cl)nc(NCC)n1	absolute recovery	%	98.3

* * *

# absolute recovery listing for each entry below
test-description: absolute recovery over vacuum-assisted evaporative concentration; higher = better recovery
experimental-conditions: wastewater influent; enrichment method: VEC

compound	endpoint-unit	absolute recovery
COc1cc(OC)n2nc(S(=O)(=O)Nc3c(Cl)ccc(C)c3Cl)nc2n1	%	106
CC(C)n1c(C=CC(O)CC(O)CC(=O)[O-])c(-c2ccc(F)cc2)c2ccccc21 (stereo not given)	%	72.3
Nc1nnc(-c2cccc(Cl)c2Cl)c(N)n1	%	97.7
COc1cc(Cc2c[nH+]c(N)nc2N)cc(OC)c1OC	%	106
COCCN(C(=O)CS(=O)(=O)[O-])c1c(C)cccc1C	%	109
CC([NH2+]C(C)(C)C)C(=O)c1cccc(Cl)c1 (stereo not given)	%	31.5
CC(C)(Oc1ccc(C(=O)c2ccc(Cl)cc2)cc1)C(=O)[O-]	%	102
CN(C)C(=O)Nc1ccc(Cl)c(Cl)c1	%	103
COc1ccc(C(C[NH3+])C2(O)CCCCC2)cc1 (stereo not given)	%	91
CC(=O)Nc1nnc(S([NH-])(=O)=O)s1 [Acetazolamide]	%	107

* * *

test-description: absolute recovery over mixed-bed multilayer solid-phase extraction; higher = better recovery
experimental-conditions: surface water; enrichment method: SPE

compound	endpoint-unit	absolute recovery
Cc1cc(Cl)ccc1OCCCC(=O)[O-]	%	95.2
C[NH+](C)CCC=C1c2ccccc2COc2ccc(CC(=O)[O-])cc21	%	86.5
CCNc1nc(Cl)nc(NC(C)(C)C)n1	%	95
Cn1cc(C(=O)Nc2ccc(F)cc2-c2ccc(Cl)c(Cl)c2)c(C(F)F)n1	%	101
CN(C)C(=O)Nc1ccc(-n2nc(C(C)(C)C)oc2=O)c(Cl)c1	%	98.3
O=C([O-])C(c1ccccc1Cl)[NH+]1CCc2sccc2C1 (configuration not stated)	%	94
CCC(C)C(=O)OC1CC(C)C=C2C=CC(C)C(CCC3CC(O)CC(=O)O3)C21 (configuration not stated)	%	70.9

* * *

test-description: absolute recovery over mixed-bed multilayer solid-phase extraction; higher = better recovery
experimental-conditions: wastewater effluent; enrichment method: SPE
Please mark T if the recorded absolute recovery is equal to or greater than 90%, and F if it falls below.

compound	assigned-label
CC(C)C([NH3+])C(=O)OCC(CO)OCn1cnc2c(=O)[nH+]c(N)[nH]c21 (stereo not given)	F
Nc1cn[nH+]c([O-])c1Cl	F
CCOC(=O)C1=NOC(c2ccccc2)(c2ccccc2)C1	T
COc1ccc(C(C[NH3+])C2(O)CCCCC2)cc1 (stereo not given)	F
[O-]n1nnc2ccccc21 [1-Hydroxybenzotriazole H]	F
CC(C)=NOCCOC(=O)C(C)Oc1ccc(Oc2cnc3cc(Cl)ccc3n2)cc1 (stereo not given)	T

* * *

# absolute recovery listing for each entry below
test-description: absolute recovery over vacuum-assisted evaporative concentration; higher = better recovery
experimental-conditions: wastewater influent; enrichment method: VEC
endpoint: absolute recovery (%)

compound	endpoint-unit	value-observed
CC(C(=O)[O-])c1cccc(C(=O)c2ccccc2)c1 (stereo not drawn)	%	96.4
COc1ccc(C(=CC(=O)N2CCOCC2)c2ccc(Cl)cc2)cc1OC	%	95.7
COc1nc(NC(=O)[N-]S(=O)(=O)c2ccccc2C(F)(F)F)nc(C(F)(F)F)n1	%	101
CN1C(=O)CN=C(C2=CCCCC2)c2cc(Cl)ccc21	%	100
CC(C)=NOCCOC(=O)C(C)Oc1ccc(Oc2cnc3cc(Cl)ccc3n2)cc1 (stereo not drawn)	%	13.2
N#Cc1nn(-c2c(Cl)cc(C(F)(F)F)cc2Cl)c(N)c1SC(F)(F)F	%	137
CCCOCC(=Nc1ccc(Cl)cc1C(F)(F)F)n1ccnc1	%	114
C[NH+]1C2CCC1C(C(=O)[O-])C(OC(=O)c1ccccc1)C2 (stereo not drawn)	%	110
COc1cccc(C2(O)CCCCC2C[N+](C)(C)[O-])c1 (stereo not drawn) [Tramadol-N-oxide]	%	102
COc1ccc2c(c1)c(CC(=O)[O-])c(C)n2C(=O)c1ccc(Cl)cc1	%	98.9
CSc1nc(N)nc(NC(C)(C)C)n1	%	115
CCC(CO)NCC[NH2+]C(CC)CO (stereo not drawn)	%	124
CN1CCN(C)C1=O	%	104
CC(C)N(Cc1ccccc1)C(=O)C(C)(C)C	%	46.1
C=CC1=C(C(=O)[O-])N2C(=O)C([NH3+])C2SC1 (stereo not drawn)	%	96.5
CC12CCC(=O)C=C1CCC1C2C(=O)CC2(C)C1CCC2(O)C(=O)CO (stereo not drawn)	%	54.6
Nc1cnn(-c2ccccc2)c(=O)c1Cl	%	104
COC(=O)c1ccc(I)cc1S(=O)(=O)[N-]C(=O)Nc1nc(C)nc(OC)n1	%	102

* * *

test-description: absolute recovery over mixed-bed multilayer solid-phase extraction; higher = better recovery
experimental-conditions: nanopure water; enrichment method: SPE

molecule	endpoint-unit	absolute recovery
CNC(=C[N+](=O)[O-])NCCS(=O)Cc1ccc(C[NH+](C)C)o1 (centres undefined) [Ranitidin-S-oxid]	%	72.3
CN(C(=O)CO)c1c(I)c(C(=O)NCC(O)CO)c(I)c(C(=O)NCC(O)CO)c1I (centres undefined) [Iomeprol]	%	73.5
CCOP(=O)(OCC)OC(=CCl)c1ccc(Cl)cc1Cl [Chlorfenvinphos]	%	85.1
C[NH2+]CC(c1ccc(OC)cc1)C1(O)CCCCC1 (centres undefined) [N-Desvenlafaxin]	%	76.9
CCC(CO)NCC[NH2+]C(CC)CO (centres undefined) [Ethambutol]	%	75.8
CCOC(=O)C1(c2ccccc2)CCC=CC1[NH+](C)C (centres undefined) [Tilidine]	%	73.9
COCC(C)N(C(=O)CCl)c1c(C)csc1C (centres undefined) [Dimethenamid]	%	94.4
CC[NH+]1CCCC1CNC(=O)c1cc(S(N)(=O)=O)ccc1OC (centres undefined) [Sulpirid]	%	80.1
CCOc1cc(CC(=O)NC(CC(C)C)c2ccccc2N2CCCCC2)ccc1C(=O)[O-] (centres undefined) [Repaglinide]	%	95.4
